Exercise: state measured IC50 for each of the molecules provided.
studyTarget: BCR-NTRK2 BaF3 cells (Homo sapiens)
Construct: fused on or other part: P11274 (Breakpoint cluster region protein)
Sequence (Q16620 538-807): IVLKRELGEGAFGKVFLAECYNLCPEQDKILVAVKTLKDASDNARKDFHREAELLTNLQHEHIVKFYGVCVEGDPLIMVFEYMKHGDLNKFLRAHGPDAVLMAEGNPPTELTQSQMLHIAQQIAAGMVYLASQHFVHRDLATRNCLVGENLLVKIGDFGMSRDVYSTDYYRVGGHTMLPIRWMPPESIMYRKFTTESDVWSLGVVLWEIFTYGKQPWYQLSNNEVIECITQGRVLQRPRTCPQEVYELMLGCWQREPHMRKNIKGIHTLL
assayOverview: BaF3 BCR-NTRK2 cell proliferation assay (ATPlite)
conditionNotes: read-out: Inhibition of Cell Proliferation IC50, BCR/BaF3 TrkB

Recorded IC50 for `CNc1ncnc2[nH]cc(C(=O)c3ccc(NC4CCCCC4)nc3Cl)c12` , please?
> 1000 nM

Same for `O=C(c1ccc(NC2CCC(F)(F)CC2)nc1Cl)c1c[nH]c2ncnc(NC3CC3)c12`
< 100 nM

Same for `O=C(c1ccc(NC2CCC(F)(F)CC2)nc1)c1c[nH]c2ncnc(NC3CC3)c12`
< 100 nM

Same for `Fc1nc(Nc2ccc(C3CC3)nc2)ccc1Cc1c[nH]c2ncnc(NCC(F)(F)F)c12`
< 10 nM

Same for `CCc1ccc(Nc2ncc(Cc3c[nH]c4ncc(C)cc34)cn2)cc1`
< 10 nM

Same for `Fc1ccc(Nc2ncc(Cc3c[nH]c4ncc(Cl)cc34)cn2)cc1`
< 1000 nM

Same for CC1CCC(Nc2ncc(Cc3c[nH]c4ncc(Cl)cc34)cn2)CC1 (stereo not drawn)
> 10000 nM

Same for `COc1ccc(Nc2ccc(Cc3c[nH]c4ncnc(OC)c34)c(F)n2)cn1`
< 100 nM

Same for `CCOc1ccc(Nc2ccc(Cc3c[nH]c4ncnc(OCCOC)c34)c(F)n2)cn1`
< 100 nM
